- Tested on: PC-12
- assayComment: Neurotrophic activity in rat PC-12 cells assessed as neurite outgrowth promoting activity in NGF-induced cells by measuring differentiation rate at 10 […] (reference value: 4.24 +/- 0.03 %)
- Assay type: functional
- Design: concentration or dose not given beside the values
Values of Activity greater than or equal to 6% map to 1; values below map to 0.

Below are worked cases with known answers.
compoundSmiles	qualitativeLabel
C[C@@H]1CC=C2[C@]13C[C@@]1(O)OC(OC[C@@]2(C)[C@@]1(C)O)[C@@H]3OC(=O)CCc1cccc(Br)c1	0
C[C@@H]1CC=C2[C@]13C[C@@]1(O)OC(OC[C@@]2(C)[C@@]1(C)O)[C@@H]3OC(=O)CCc1ccccc1	0
C[C@@H]1CC[C@@]2(O)[C@]13C[C@@]1(OC(=O)Cc4cccc(Cl)c4)OC(OC[C@@]2(C)[C@@]1(C)O)[C@@H]3O	1
C[C@@H]1CC[C@@]2(O)[C@]13C[C@@]1(OC(=O)Cc4cccc(F)c4)OC(OC[C@@]2(C)[C@@]1(C)O)[C@@H]3O	1
C[C@@H]1CC[C@@]2(O)[C@]13C[C@@]1(OC(=O)CCc4cccc(Cl)c4)OC(OC[C@@]2(C)[C@@]1(C)O)[C@@H]3O	0
C[C@@H]1CC[C@@]2(O)[C@]13C[C@@]1(OC(=O)CCc4cccc(Br)c4)OC(OC[C@@]2(C)[C@@]1(C)O)[C@@H]3O	0
C[C@@H]1CC[C@@]2(O)[C@]13C[C@@]1(OC(=O)Cc4cccc(Br)c4)OC(OC[C@@]2(C)[C@@]1(C)O)[C@@H]3O	1
C[C@@H]1CC[C@@]2(O)[C@]13C[C@@]1(OC(=O)Cc4ccc5ccccc5c4)OC(OC[C@@]2(C)[C@@]1(C)O)[C@@H]3O	0

Let's switch to this molecule now.
Q: Given C/C=C/C=C/C(=O)O[C@H]1C2OC[C@]3(C)C4=CC[C@@H](C)[C@@]41C[C@@](O)(O2)[C@]3(C)O , state whether its Activity is at least 6%.
A: 1
